Record form. Attribute: EC50. Fill in for each entry.
System: Simian virus 40
Assay: Antiviral activity against Simian virus 40 PML2 DAR in african green monkey BSC1 cells assessed as reduction of virus-induced cytopathogenicity
Type: functional, organism-based
Conditions: Betapolyomavirus macacae, BSC-1
Don't forget the unit after the number, please.

According to the records, this compound Nc1ccn(C[C@H]2COP(=O)(O)CO2)c(=O)n1 [CYCLIC CIDOFOVIR] displays EC50 of 18.5 µM

Memo: `Nc1ncn(C[C@@H](CO)OCP(=O)(O)O)c(=O)n1` , reported EC50: 16.1 µM

Item: `Nc1nccc2c1ncn2C[C@@H](CO)OCP(=O)(O)O` | EC50: 7.3 µM

The recorded EC50 for `Nc1nc(N)c2ncn(C[C@@H](CO)OCP(=O)(O)O)c2n1` is 47.1 µM

The recorded EC50 for `Nc1ncnc2c1ncn2C[C@H]1COP(=O)(O)CO1` is 38.3 µM

Entry under test: Nc1ccn(C[C@@H](CO)OCP(=O)(O)O)c(=O)n1.O.O [CIDOFOVIR] . Its EC50 was 17.8 µM
